Field: melting point. Provide a value for each of the compounds that follow.

# compound, melting point
rows = [
    ("CC1=C(C(=O)c2ccc(Cl)cc2)C(=O)C2C=CC=CC2C1=O (centres undefined)", "136 to 137 °C"),
    ("COC=C(C(=O)OC)N(C)c1cccc(-c2ccc(Cl)cc2)n1", "135 °C"),
    ("O=C(Cc1ccc(Cl)cc1)Nc1ccc(-n2nc(C(F)(F)F)cc2C(F)(F)F)cc1", "122 to 124 °C"),
    ("Cc1nc(-n2ccc(OCc3ccc(C(F)(F)F)o3)cc2=O)sc1C(=O)NCc1ccccc1", "214 to 216 °C"),
    ("Cc1ccc(S(=O)(=O)NNC2=CC(=O)CC(c3ccccc3Cl)C2)cc1 (centres undefined)", "235 to 236 °C"),
    ("COc1cccc(CC(=O)O)c1OCCCc1cn(-c2cc(C(F)(F)F)ccn2)nc1C(C)C", "127 to 128 °C"),
    ("CCCCC1(N(C)C)CCC(c2[nH]c3ccccc3c2C)(c2[nH]c3ccccc3c2CCNS(=O)(=O)C2CCCC2)CC1 (centres undefined)", "111 to 115 °C"),
    ("CCOC(=O)c1cn(CC)c2nc(N3CCN(C(=O)OCC)CC3)c(F)cc2c1=O", "171 to 173 °C"),
]

According to the records, this compound CS(=O)(=O)Nc1ccc(C=O)cc1Oc1ccc(F)cc1F displays melting point of 156 to 157 °C

----------
property_measured: melting point

Here are 3 molecules together with their reported answers.
# molecular_string, melting point
measured = [
    ("C=CN1Cc2ccccc2-c2ccc(Cl)cc2C1=O", "170 to 172 °C"),
    ("O=c1[nH]c(-c2cccc(Oc3ccc4c(c3)S(=O)(=O)N=C3CCCN34)c2)no1", "> 250 °C"),
    ("O=C(c1ccc(C#Cc2ccccc2)cc1)c1ccc(Oc2ccccc2)cc1", "166 °C"),
]

Hey, can you go through the list below and give me melting point for every item?
1. O=C(O)C(=O)CC(=O)c1cccn1Cc1ccc(F)c(F)c1
2. NC(=O)c1ccc(CCCCCCN2CCOCC2)cc1O

Result:
["145 to 148 °C", "70 to 73 °C"]

----------
property_measured: melting point

Here are 3 molecules together with their reported answers.
# molecule, melting point
data = [
    ("Cc1ccc(S(=O)(=O)OCC2Cn3c(nc4ccccc43)-c3ccccc3O2)cc1 (stereo not given)", "166 °C"),
    ("Cc1c(NC(=O)CC(C)(C)C)c(C)c2c(-c3ccc(C(C)C)cc3)coc2c1C", "229 to 230 °C"),
    ("CCCCCCCCCCN=C1SC(=CC(=O)O)C(=O)N1CCCCCCCCCC", "68 to 69 °C"),
]

Hey, can you go through the list below and give me melting point for every item?
1. CCOC(=O)COc1cnc(S)nc1O
2. Cc1cccc(-c2[nH]c(C(C)C)nc2-c2cccc(-c3ccc(NS(C)(=O)=O)cc3F)c2)n1

Result:
1: 157 to 160 °C; 2: 179 to 184 °C

----------
Field: melting point. Provide a value for each of the compounds that follow.

Here are 3 compounds together with their reported answers.
# compound, melting point
measured = [
    ("Cc1ccccc1-c1nc2ccc(O)cc2o1", "134 to 138 °C"),
    ("COc1ccc(C=Cc2ccc([N+](=O)[O-])cc2C(F)(F)F)cc1", "120 to 123 °C"),
    ("CCCCOc1ccc(S(=O)(=O)C2(C(=O)O)CCN(C)CC2)cc1", "118 °C"),
]

Hey, can you go through the list below and give me melting point for every item?
1. O=C1N[C@H](Cc2ccccc2C(F)(F)F)[C@H](c2ccc(F)cc2)O1 (racemic)
2. CN1CCC[C@H]1Cn1nc(-c2c(-c3ccccc3)nn3ccccc23)ccc1=O

Result:
["138 to 140 °C", "114 to 117 °C"]

----------
Field: melting point. Provide a value for each of the compounds that follow.

# compound, melting point
measured = [
    ("Cc1c(-c2ccccc2)oc2cc(OCC3CO3)ccc2c1=O (centres undefined)", "231 to 235 °C"),
    ("COc1ccc(C2=NN(C)C(=O)[C@H]3CCCC[C@@H]23)cc1OC (relative stereo)", "110 to 112 °C"),
]

Hey, can you go through the list below and give me melting point for every item?
1. Cn1c(CNC(=O)Nc2ccc3c(c2)CCC3NC(=O)OC(C)(C)C)c(-c2ccccc2)c2cc(Cl)ccc2c1=O (centres undefined)
2. Cn1ccc2cc(-c3csc4ncnc(NCc5ccccn5)c34)ccc21
3. CCCCCCC(=O)CCCn1c(CCC)nc2c(N)nc3ccccc3c21
4. CS(=O)c1ccc(-c2nn(Cc3cccnc3)c(=O)cc2-c2ccc(Cl)cc2)cc1 (centres undefined)
5. N#Cc1ccccc1NCc1nc2ccc(F)cc2c(=O)n1-c1cccnc1Cl
6. COC(=S)NC[C@H]1CN(c2cc(F)c(N3CNC(=O)C3)c(F)c2)C(=O)O1
7. CCOC(=O)c1nc(-c2ccc([N+](=O)[O-])cc2)[nH]c1-c1ccc(N(C)C)cc1

Result:
1: 225 to 227 °C; 2: 184 to 185 °C; 3: 111 to 113 °C; 4: 155 °C; 5: 183 to 187 °C; 6: 199 °C; 7: 240 to 242 °C

----------
Field: melting point. Provide a value for each of the compounds that follow.

Here are 5 compounds together with their reported answers.
# compound, melting point
data = [
    ("O=[N+]([O-])c1ccc2nc3c(nc2c1)OCC1CCCN31 (configuration not stated)", "234 to 237 °C"),
    ("COc1cc2c(cc1C(C)=O)sc1ccccc12", "163 to 165 °C"),
    ("CC(C)(ON=C(C(=O)O)c1ccco1)C(N)=O", "160 to 162 °C"),
    ("NC1C(O)C(CO)OC1n1ccc(=O)[nH]c1=O (configuration not stated)", "197 to 199 °C"),
    ("Cc1ccc(CC2(O)CCN(C(C)C(=O)Nc3ccc(O[Si](C)(C)C(C)(C)C)cc3)CC2)cc1 (racemic)", "134 to 138 °C"),
]

Hey, can you go through the list below and give me melting point for every item?
1. O=C(O)CCNc1cccc(CNC(=O)C2Cc3ccccc3N2S(=O)(=O)c2ccc(-c3cccc(C(F)(F)F)c3)cc2)c1 (configuration not stated)
2. CCOC(=O)c1ccc(N=C(Nc2ccc(C(=O)OCC)cc2)c2ccc(OC)cc2)cc1
3. O=C1N(Cc2ccccn2)c2ccccc2C12COc1cc3c(cc12)CCO3 (configuration not stated)

Result:
1: 85 °C; 2: 145 to 146 °C; 3: 84 to 85 °C

----------
property_measured: melting point

Here are 8 compounds together with their reported answers.
# compound, recorded_result
records = [
    ("Cc1cc(NC(=O)C(=O)N(C)C)cc(C)c1S(=O)(=O)C[N+](=O)[O-]", "171 to 172 °C"),
    ("C=C1CCc2onc(-c3ccccc3)c2C1=O", "97 to 99 °C"),
    ("CCCCc1nn(-c2cc(NC(=O)CC)ccc2Cl)c(=O)n1Cc1ccc(-c2cc(CC)ccc2S(=O)(=O)NC(=O)c2ccccc2Cl)cc1", "144 to 146 °C"),
    ("CCOCc1nc2c(N)nc3ccccc3c2n1NCCCNC(=O)Nc1ccccc1", "177 to 179 °C"),
    ("CNC(=O)N1CCc2[nH]cnc2C1c1cccs1 (stereo not given)", "230 °C"),
    ("Cc1oc(-c2ccccc2)nc1Cc1cc2cc(C#N)ccc2o1", "139 to 140 °C"),
    ("Nc1ccc(CS(=O)(=O)NC2CCCCC2)cc1", "141 to 143 °C"),
    ("CCOC(=O)C(=CN(C)C1(CO)CC1)C(=O)c1c(F)c(F)c(F)c(F)c1F", "74.5 to 76 °C"),
]

Hey, can you go through the list below and give me melting point for every item?
1. CCc1ccc2c(=O)c(C(N)=O)cn(C)c2c1
2. OC1CSC(Oc2ccccc2-c2ccoc2)C(O)C1O (stereo not given)
3. CN1CCN(c2cccc3ccc(-c4cccc(F)c4)cc23)CC1
4. Cc1cc(O)c(S(=O)C23CC4CC(CC(C4)C2)C3)c(=O)o1 (stereo not given)
5. Cc1sc2c(c1C(=O)c1ccc(N(C)C)cc1)CCC2C(=O)O (stereo not given)
6. O=C(c1nc(-c2ccccc2)nc2ccccc12)N1CCC(CCO)CC1
7. CC(=NO)C1(c2ccc(Cl)c(Cl)c2)CCC1

Result:
255 to 256 °C
102 °C
116 °C
174 °C
171 to 173 °C
146 °C
120 to 121 °C

Hey, can you go through the list below and give me melting point for every item?
1. COc1ccc(OC)c2c1C[C@@H](O)[C@@H](N)C2 (relative stereo)
2. Cc1c(NC(=O)c2ccc(OCC3CCOC3)cc2)ccc2cc(CNCC3CCOCC3)cnc12 (stereo not given)
3. COc1cccc([C@H]2O[C@H](CC(=O)Nc3ccc4oc(CCC(=O)O)cc4c3)C(=O)N(CC(C)(C)CO)c3ccc(Cl)cc32)c1OC
4. CCCN1CCC(=O)C2=C1CSc1ccc(OC)cc12

Result:
193 to 196 °C
122 to 123 °C
207 to 209 °C
108 to 110 °C

According to the records, this compound Cn1c(OC2CCOC2)nn(C(=O)NS(=O)(=O)c2ccccc2Br)c1=O (stereo not given) displays melting point of 191 °C
